Tested on: L1210 leukemia ip in BDF1 mice, survival T/C
measurementNotes: NCI In Vivo Anticancer Drug Screen. Data for tumor model L1210 Leukemia (intraperitoneal) in B6D2F1 (BDF1) mice
measurementParameters: endpoint: mean survival time; dose: 400.0 mg/kg/injection; schedule: Q04DX003 (ip); vehicle: Klucel (hydroxypropylcellulose) (HPC); higher = longer survival
Toxic doses and inconclusive results are not listed.
metric: T/C

What the record says about Cc1ccc(S(=O)(=O)/N=S(\CCCl)CCc2ccccc2)cc1 (configuration not stated) : T/C is 90 % of control

What the record says about OC(Nc1ncccn1)C(Cl)(Cl)Cl (configuration not stated) : T/C is 101 % of control

What the record says about O=C(O)C(Br)C(Br)C(=O)O (configuration not stated) : T/C is 95 % of control

What the record says about CCN(CC)CCCC(C)Nc1nc(/C=C/c2ccc(Cl)cc2)nc(Cl)c1-c1ccc(Cl)cc1 (configuration not stated) : T/C is 104 % of control

What the record says about CCCCCCCCCCCCCCC(=O)c1ccccc1 : T/C is 104 % of control

What the record says about COc1ccc([N+](=O)[O-])cc1N : T/C is 90 % of control

What the record says about O=[N+]([O-])c1cc(Cl)cc2c1-c1ccc(Cl)cc1C2 : T/C is 98 % of control

What the record says about COc1ncnc2nc[nH]c12 : T/C is 106 % of control

What the record says about Cc1ccc(C(=O)c2ccc(C)cc2)cc1 : T/C is 100 % of control

What the record says about CCOc1ccc(/C=N/NS(=O)(=O)c2ccc(C)cc2)cc1 : T/C is 92 % of control

What the record says about CC(=O)OCC1OC(OC(C)=O)C(NC(=O)N(C)C(C)=O)C(OC(C)=O)C1OC(C)=O (configuration not stated) : T/C is 97 % of control

What the record says about CC1=C(C)C2(Cl)C(Cl)=C(Cl)C1(Cl)C2(Cl)Cl : T/C is 96 % of control
